# experimental.details: solvent given as SMILES
# applied.conditions: in Cc1ccccc1
metric.name: emission maximum (nm)
Output spec: scalar in nm, unitless text.

>  <structure.notation>
c1ccc2c(c1)-c1ccccc1C21c2ccccc2N(c2ccc(-c3nc([C@]45CC6CC(C[C@@H](C6)C4)C5)nc([C@]45C[C@H]6C[C@@H](C[C@H](C6)C4)C5)n3)cc2)c2ccccc21

>  <result.unit>
nm

>  <emission maximum>
454.71

$$$$
>  <structure.notation>
CC1(C)c2ccccc2N(c2ccc(-c3cc(C#N)c(C#N)cc3-c3ccc(N4c5ccccc5C(C)(C)c5ccccc54)cc3)cc2)c2ccccc21

>  <result.unit>
nm

>  <emission maximum>
532

$$$$
>  <structure.notation>
CCN(CC)c1ccc(-c2nc3c(c4c2-c2ccc(C#N)cc2CC4)-c2ccc(C#N)cc2CC3)cc1

>  <result.unit>
nm

>  <emission maximum>
474

$$$$

Query block: Report emission maximum for CCCCC1(CCCC)c2cc(C#Cc3ccc4ccc5cccc6ccc3c4c56)ccc2-c2ccc(N(c3ccccc3)c3ccccc3)cc21 please.
Result block: 449

Query block: Also need Cc1ccc2c(c1)C1(c3ccccc3-c3ccccc31)c1cc(C)ccc1N2c1ccc(-c2ncccn2)cc1 , thanks.
Result block: 461

Query block: // next record C(=C\c1ccc(-c2nnc(-c3ccc(/C=C/c4ccc(-c5nc(-c6ccccc6)c(-c6ccccc6)[nH]5)cc4)cc3)o2)cc1)/c1ccc(-c2nc(-c3ccccc3)c(-c3ccccc3)[nH]2)cc1
Result block: 445

Query block: Now consider Cc1ccc2c(c1)C(c1ccccc1)(c1ccccc1)c1cc(C)ccc1N2c1ccc2c(c1)N(c1ccccc1)c1ccccc1B2c1c(C(C)C)cc(C(C)C)cc1C(C)C .
Result block: 449
